# SYSTEM_TESTED: NUAK family SNF1-like kinase 1 (Homo sapiens)
# COND: at 10 µM
Answer each item with its documented residual activity.
Numeric answer only, unit % assumed.

Q. Output measured residual activity for this item: CO[C@H]1C[C@@H]2CC[C@@H](C)[C@@](O)(O2)C(=O)C(=O)N2CCCC[C@H]2C(=O)O[C@H]([C@H](C)C[C@@H]2CC[C@@H](O)[C@H](OC)C2)CC(=O)[C@H](C)/C=C(\C)[C@@H](O)[C@@H](OC)C(=O)[C@H](C)C[C@H](C)/C=C/C=C/C=C/1C
A. 96

Q. Output measured residual activity for this item: O=C(O)c1ccc2c3c1cccc3c(=O)n1c3ccccc3nc21
A. 28

Q. Output measured residual activity for this item: N#Cc1cnc2cnc(NCc3cccnc3)cc2c1Nc1ccc(F)c(Cl)c1
A. -1

Q. Output measured residual activity for this item: Oc1n[nH]c2nnc(-c3c(-c4ccccc4)nn4ccccc34)cc12
A. 45

Q. Output measured residual activity for this item: CC(C)n1cnc2/c(=N/c3cccc(Cl)c3)nc(NCCO)[nH]c21
A. 29

----------
Answer each item with its documented residual activity.
# SYSTEM_TESTED: G protein-coupled receptor kinase 5 (Homo sapiens)
# COND: at 10 µM
Numeric answer only, unit % assumed.

Q. Output measured residual activity for this item: Nc1nc(Nc2ccc(S(N)(=O)=O)cc2)nn1C(=S)Nc1c(F)cccc1F
A. 30

Q. Output measured residual activity for this item: CC[n+]1c(/C=C/N(C)c2ccccc2)n(-c2ccccc2)c2ccc(-c3nc4ccccc4s3)cc21
A. 91

Q. Output measured residual activity for this item: CCOc1cc2ncnc(Nc3cccc(Br)c3)c2cc1OCC
A. 84

Q. Output measured residual activity for this item: CCN(CC)CCCCN1c2ccccc2Oc2ccc(Cl)cc21
A. 97

Q. Output measured residual activity for this item: Cn1cc(/C=C2\C(=O)Nc3ccc(S(N)(=O)=O)cc32)c2ccccc21
A. 37

Q. Output measured residual activity for this item: N#C/C(=C(\N)Sc1ccc(N)cc1)c1ccccc1C(F)(F)F
A. 95

Q. Output measured residual activity for this item: Nc1cccc(-c2cc3c(Oc4cccc(O)c4)ncnc3[nH]2)c1
A. 93

Q. Output measured residual activity for this item: C[C@@H](N)[C@H]1CC[C@H](C(=O)Nc2ccncc2)CC1
A. 90

Q. Output measured residual activity for this item: Oc1n[nH]c2nnc(-c3c(-c4ccccc4)nn4ccccc34)cc12
A. 97

Q. Output measured residual activity for this item: CN(C)c1ccc(/C=C2\C(=O)Nc3ccccc32)cc1
A. 86

Q. Output measured residual activity for this item: CC#CC(=O)Nc1cc2c(Nc3ccc(F)c(Cl)c3)ncnc2cn1
A. 93

----------
Answer each item with its documented residual activity.
# SYSTEM_TESTED: Serine/threonine-protein kinase Chk2 (Homo sapiens) (UniProt O96017)
# Sequence (O96017 whole entry): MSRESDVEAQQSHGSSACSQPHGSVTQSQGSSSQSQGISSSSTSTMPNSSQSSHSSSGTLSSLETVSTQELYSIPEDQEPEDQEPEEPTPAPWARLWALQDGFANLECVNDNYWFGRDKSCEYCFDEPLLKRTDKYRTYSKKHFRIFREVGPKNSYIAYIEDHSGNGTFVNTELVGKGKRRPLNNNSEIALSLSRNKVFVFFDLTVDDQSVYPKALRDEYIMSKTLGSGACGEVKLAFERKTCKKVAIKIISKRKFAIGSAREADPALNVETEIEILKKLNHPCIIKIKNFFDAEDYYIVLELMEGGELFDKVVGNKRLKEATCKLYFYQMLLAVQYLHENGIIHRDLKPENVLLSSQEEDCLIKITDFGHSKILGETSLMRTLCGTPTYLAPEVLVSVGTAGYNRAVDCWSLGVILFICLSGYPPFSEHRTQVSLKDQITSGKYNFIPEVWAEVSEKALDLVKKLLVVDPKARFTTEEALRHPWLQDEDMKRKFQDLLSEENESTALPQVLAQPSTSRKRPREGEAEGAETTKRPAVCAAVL
# COND: at 10 µM
Numeric answer only, unit % assumed.

Q. Output measured residual activity for this item: CC(=O)c1ccc(N2CCOCC2)cc1O
A. 91

Q. Output measured residual activity for this item: O=C1NC(=O)c2c1c1c3ccccc3[nH]c1c1[nH]c3cc(Br)ccc3c21
A. 30

Q. Output measured residual activity for this item: Oc1ccc(-c2nc(-c3ccc(F)cc3)c(-c3ccncc3)[nH]2)cc1
A. 68

Q. Output measured residual activity for this item: O=C1NC(=O)c2cc(Nc3ccc(F)cc3)c(Nc3ccc(F)cc3)cc21
A. 77

Q. Output measured residual activity for this item: COc1cc2ncnc(Nc3ccc(Oc4ccccc4)cc3)c2cc1OC
A. 8

Q. Output measured residual activity for this item: Cc1cc(Nc2nc(-c3ccccc3)nc3ccccc23)n[nH]1
A. 2

Q. Output measured residual activity for this item: CC(=O)O/N=C1\C(=C2\C(=O)Nc3cc(Br)ccc32)Nc2ccccc21
A. 26

Q. Output measured residual activity for this item: COc1cccc(-c2cc(=O)c3ccccc3o2)c1N
A. 72

Q. Output measured residual activity for this item: O=C1Nc2ccc(Br)cc2/C1=C\c1cc2c([nH]1)CCCC2
A. 42

Q. Output measured residual activity for this item: CC#CC(=O)Nc1cc2c(Nc3ccc(F)c(Cl)c3)ncnc2cn1
A. 108

Q. Output measured residual activity for this item: N#Cc1cnc2cnc(NCc3cccnc3)cc2c1Nc1ccc(F)c(Cl)c1
A. 36

Q. Output measured residual activity for this item: O=C1c2ccccc2-[n+]2ccc3c([nH]c4ccccc43)c21
A. 75

Q. Output measured residual activity for this item: O=C(O)c1ccc2c3c1cccc3c(=O)n1c3ccccc3nc21
A. 38

Q. Output measured residual activity for this item: N#CCCc1ccc2c(c1)-c1[nH]c3ccc([N+](=O)[O-])cc3c1CC(=O)N2
A. 0

All figures here come from ChEMBL document CHEMBL2218924.
